target: α4β1 integrin (Homo sapiens, UniProt P05556+P13612); construct: Jurkat E6.1 cells (expressing α4β1) were maintained as a stationary suspension culture; test: Inhibition of α4β1 integrin-mediated Jurkat cell adhesion to FN; details: Jurkat cell adhesion to plates coated with FN (10 μg/mL); mean ± SD, three experiments in quadruplicate
Sequence (P13612 34-1032): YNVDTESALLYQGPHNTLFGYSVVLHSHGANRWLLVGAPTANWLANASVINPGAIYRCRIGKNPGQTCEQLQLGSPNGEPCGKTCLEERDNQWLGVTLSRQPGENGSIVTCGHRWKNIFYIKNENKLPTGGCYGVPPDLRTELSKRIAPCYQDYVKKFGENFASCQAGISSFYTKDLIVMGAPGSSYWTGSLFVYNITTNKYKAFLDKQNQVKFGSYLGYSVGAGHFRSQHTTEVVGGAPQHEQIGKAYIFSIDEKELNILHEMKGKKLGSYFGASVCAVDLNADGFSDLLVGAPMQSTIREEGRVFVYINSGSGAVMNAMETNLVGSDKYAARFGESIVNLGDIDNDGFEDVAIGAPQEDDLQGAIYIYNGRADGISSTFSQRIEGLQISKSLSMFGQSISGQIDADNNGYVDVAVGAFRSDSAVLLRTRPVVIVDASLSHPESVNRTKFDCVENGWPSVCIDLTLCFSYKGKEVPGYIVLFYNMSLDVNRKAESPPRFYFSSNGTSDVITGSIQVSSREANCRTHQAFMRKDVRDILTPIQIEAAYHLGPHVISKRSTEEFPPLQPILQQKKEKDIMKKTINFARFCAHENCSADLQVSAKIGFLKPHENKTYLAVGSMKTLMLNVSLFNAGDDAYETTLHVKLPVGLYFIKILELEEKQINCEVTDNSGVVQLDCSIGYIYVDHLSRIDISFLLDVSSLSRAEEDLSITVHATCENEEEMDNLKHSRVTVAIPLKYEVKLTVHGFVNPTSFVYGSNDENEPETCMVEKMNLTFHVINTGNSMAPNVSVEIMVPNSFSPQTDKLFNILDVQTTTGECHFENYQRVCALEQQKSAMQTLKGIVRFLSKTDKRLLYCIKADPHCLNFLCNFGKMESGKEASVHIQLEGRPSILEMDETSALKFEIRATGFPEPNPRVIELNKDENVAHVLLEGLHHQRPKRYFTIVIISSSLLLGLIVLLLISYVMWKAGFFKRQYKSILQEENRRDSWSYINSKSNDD
Sequence (P05556 21-798): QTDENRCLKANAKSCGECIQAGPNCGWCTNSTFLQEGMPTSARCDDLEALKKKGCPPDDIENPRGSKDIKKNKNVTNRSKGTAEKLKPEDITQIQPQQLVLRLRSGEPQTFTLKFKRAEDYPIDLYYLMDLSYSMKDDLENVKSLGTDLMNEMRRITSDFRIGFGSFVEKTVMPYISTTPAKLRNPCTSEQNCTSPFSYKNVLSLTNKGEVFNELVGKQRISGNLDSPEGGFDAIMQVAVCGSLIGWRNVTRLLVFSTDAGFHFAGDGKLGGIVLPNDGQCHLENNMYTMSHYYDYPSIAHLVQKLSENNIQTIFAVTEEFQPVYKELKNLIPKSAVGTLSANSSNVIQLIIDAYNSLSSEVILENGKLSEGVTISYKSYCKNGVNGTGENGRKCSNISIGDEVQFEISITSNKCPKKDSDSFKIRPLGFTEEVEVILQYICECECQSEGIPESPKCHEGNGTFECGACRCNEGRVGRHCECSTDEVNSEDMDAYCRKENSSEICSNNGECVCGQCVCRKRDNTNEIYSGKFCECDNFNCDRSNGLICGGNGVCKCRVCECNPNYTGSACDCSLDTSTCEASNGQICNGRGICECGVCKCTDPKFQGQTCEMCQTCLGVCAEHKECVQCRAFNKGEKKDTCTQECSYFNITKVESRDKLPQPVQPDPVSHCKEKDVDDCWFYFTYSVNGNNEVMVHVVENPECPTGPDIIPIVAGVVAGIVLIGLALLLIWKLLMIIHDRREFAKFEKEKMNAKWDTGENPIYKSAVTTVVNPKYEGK
pIC50: −log10 of the molar value.
MEASURED_ENDPOINT: pIC50

{"columns": ["COMPOUND", "MEASURED_TARGET", "pIC50"],
 "data": [
  ["Cc1ccccc1NC(=O)Nc1ccc(CC(=O)N[C@@H](C)CC(=O)NCC(=O)O)cc1 [Compound 7, MPUPA-β^3-homoAla-Gly-OH]", "α4β1 integrin (Homo sapiens, UniProt P05556+P13612)", 5.39],
  ["Cc1ccccc1NC(=O)Nc1ccc(CC(=O)N[C@H](C)CC(=O)NCC(=O)O)cc1 [Compound 8, MPUPA-β^3-homoAla-Gly-OH]", "α4β1 integrin (Homo sapiens, UniProt P05556+P13612)", "< 5.30"],
  ["CCCNC(=O)[C@@H](CC(=O)NCC(=O)O)NC(=O)Cc1ccc(NC(=O)Nc2ccccc2C)cc1 [Compound 12, MPUPA-(R)-isoAsp(NHPr)-Gly-OH]", "α4β1 integrin (Homo sapiens, UniProt P05556+P13612)", 8.01],
  ["CC(=O)N[C@H](CNC(=O)Cc1ccc(NC(=O)Nc2ccccc2C)cc1)C(=O)NCC(=O)O [Compound 14, MPUPA-Dap(Ac)-Gly-OH]", "α4β1 integrin (Homo sapiens, UniProt P05556+P13612)", "< 5.30"],
  ["Cc1ccccc1NC(=O)Nc1ccc(CC(=O)NC[C@H](C)C(=O)NCC(=O)O)cc1 [Compound 9, MPUPA-β^2-homoAla-Gly-OH]", "α4β1 integrin (Homo sapiens, UniProt P05556+P13612)", "< 5.30"]
]}

Would you be so kind as to report pIC50 for each listed record?
1. CC(=O)N[C@@H](CNC(=O)Cc1ccc(NC(=O)Nc2ccccc2C)cc1)C(=O)NCC(=O)O [Compound 13, MPUPA-(S)-Dap(Ac)-Gly-OH]
2. CCCNC(=O)[C@H](CC(=O)NCC(=O)O)NC(=O)Cc1ccc(NC(=O)Nc2ccccc2C)cc1 [Compound 11, MPUPA-isoAsp(NHPr)-Gly-OH]
3. Cc1ccccc1NC(=O)Nc1ccc(CC(=O)NC[C@@H](C)C(=O)NCC(=O)O)cc1 [Compound 10, MPUPA-β^2-homoAla-Gly-OH]

[6.63, "< 5.30", "< 5.30"]
